tested on: HL-60; assay: NCI tumour cell line growth inhibition, 48 h
The source made the active and inactive calls. Rule as the data show it: active = GI50 up to about 1.1 µM and inactive = higher.
Outcomes: YES for active, NO for inactive

• COc1ccc(-c2c(C#N)c(N)n(C3OC(CO)C(O)C(O)C3O)c(=S)c2C#N)cc1 (stereo not given) = NO
• CCOC(=O)c1cc(-c2ccc(Cl)cc2)c([N+](=O)[O-])n1C = NO
• CCn1c(-c2ccc(F)cc2)nc2c1C(=O)c1ccccc1C2=O = NO
• Cc1cc(C=O)c2c(=O)c3c(O)ccc(/C=C/C(C)C)c3oc2c1 = NO
• O=C(Cc1nc2ccc(C(=O)c3ccccc3)cc2nc1O)C(=O)Nc1nc2ccccc2[nH]1 = NO
• C=CCNC1=C2C[C@@H](C)C[C@@H](OC)[C@@H](OC(=O)CCCN)[C@H](C)/C=C(\C)[C@@H](OC(N)=O)[C@H](OC)/C=C\C=C(/C)C(=O)NC(=CC1=O)C2=O = NO
• CCSC(SCC)=C1C(=O)N(c2ccccc2)N=C1C = NO
• CC(=O)OC1CC2C(C)(C)C(=O)C=C[C@]2(C)C2CCC3(C)C(c4ccoc4)C(=O)[C@H]4O[C@]43[C@]12C (stereo not given in full) = NO
• Nc1nc(SCc2ccccc2Cl)cc(C(=O)O)n1 = NO
• c1cnc2c(c1)ccc1cccnc12 = YES

* * *

test system: COLO 205; assay: NCI tumour cell line growth inhibition, 48 h
The source made the active and inactive calls. Cut-off read from the data, not from the text of the source: active = GI50 up to about 1.1 µM and inactive = higher.
measured.endpoint: GI50

• Cc1c(O)c(OC2OC(CO)C(O)C(O)C2O)cc2c1CC[C@@H]1C2(C)C(=O)C[C@]2(C)[C@@H]([C@@](C)(O)C(O)CCC(C)(C)O)[C@H](O)C[C@@]12C (some centres undefined) = > 100 µM (inactive)
• COC(=O)Nc1nc2cc(NS(=O)(=O)c3cccs3)ccc2[nH]1 = 20.7 µM (inactive)
• CCOc1ccc(/C=C(\Cl)c2ccc(OC)cc2)cc1 = > 100 µM (inactive)
• CCOC(=O)C(Cc1ccc(N=NN(C)C)cc1)NC(=O)CC1c2ccccc2-c2ccccc21 (centres undefined) = 92.7 µM (inactive)
• COC(=O)C1(C(=O)OC)N=C(C)OC1C(C)C (centres undefined) = > 100 µM (inactive)
• CCCCNC(=S)Nc1nc(C(=O)NNC(=O)c2ccccc2)cs1 = 13.3 µM (inactive)
• CCC1c2[nH]c3ccccc3c2C[C@H]2C(=O)NC(Cc3c[nH]c4ccccc34)C(=O)N12 (some centres undefined) = 18.8 µM (inactive)
• CCc1c(O)c2c(c(O)c1C(C)=O)C(=O)c1c(cc(O)c(C(=O)O)c1C(=O)O)C2=O = > 100 µM (inactive)
• c1cc(-c2sc(-c3ccncc3)c(-c3ccncc3)c2-c2ccncc2)ccn1 = 12.8 µM (inactive)

* * *

Recorded GI50 values for a group of compounds are listed next.
system: RPMI-8226; assay: NCI tumour cell line growth inhibition, 48 h
Calls of active or inactive are those of the source. Cut-off read from the data, not from the text of the source: active = GI50 up to about 1.1 µM and inactive = higher.
measured.endpoint: GI50

• CSc1nc2c(c(N3CCOCC3)n1)C(O)n1c(nc3ccccc31)S2 (stereo unspecified) = 4.72 µM (inactive)
• CN1NC(c2ccc(Cl)cc2)=C(C#N)C(=O)CC1c1ccccc1 (stereo unspecified) = > 100 µM (inactive)
• COc1ccc(-c2cc(O)c3ccc(C)nc3n2)cc1 = 55.7 µM (inactive)
• CN(/N=C\c1ccc2ccccc2c1)C1=NCCCN1 = 14.9 µM (inactive)
• c1cc(-c2ccc(-c3ccc(-c4ccc(-c5cccc6nsnc56)[nH]4)c4nsnc34)[nH]2)c2nsnc2c1 = > 100 µM (inactive)
• Cc1cn(C2CCC(/C=N\O)O2)c(=O)[nH]c1=O (stereo unspecified) = > 100 µM (inactive)
• Cc1nc(=O)[nH]c(NCCNCCO)c1C(=O)Nc1cccc2cc3ccccc3cc12 = > 100 µM (inactive)
• C=C1CC2(OC1=O)c1ccccc1CCc1ccccc12 = 2.07 µM (inactive)
• Cc1cc2nc(N)n[n+]([O-])c2cc1C = > 100 µM (inactive)
• CCCCCCCC(CC(=O)NC(CO)C(=O)NC(CO)CC(C)C)OC(=O)CC(CCCCCCC)OC(=O)CC(CCCCCCC)OC1OC(C)C(O)C(OC2OC(C)C(O)C(O)C2O)C1O (stereo unspecified) = 2.37 µM (inactive)
• CC1=C(CO)C(=O)O[C@@H]([C@@H](CO)[C@H]2CCC3C4C[C@@H](O)[C@@]5(O)CC=CC(=O)[C@]5(C)C4CC[C@@]32C)C1 (stereo partly specified) = 34.3 µM (inactive)
• CCOC(=O)c1c(-c2ccccc2)nc2ccccc2c1O = > 100 µM (inactive)
• Cc1cc(O)c2c(c1)OC1(C)CCC3C(C)(C)CCCC34COC2C14 (stereo unspecified) = > 10 µM (inactive)
• CC1=NN=C(N)NC1=CC(Sc1ccc(Cl)cc1)c1c(O)ccc2ccccc12 (stereo unspecified) = 13.5 µM (inactive)
• COC(=O)Cc1c([C@@]2(C)CCCC(C)(C)C2)ccc2c1C(=O)OC2 = 2.7 µM (inactive)
• CCN(CC)CCn1c2c3ccccc3ccc2c2oc(=O)c3ccccc3c21 = > 100 µM (inactive)
• CCOC(=O)CSc1nnc2cc(CN3CCCC3)c(-c3ccc(Cl)cc3)nn12 = 63.2 µM (inactive)
• CN(C)C(=S)/N=c1\ss/c(=N/c2ccccc2)n1C = > 100 µM (inactive)
• COc1cccc2c1C(=O)C1=C(C2=O)C(O)CC(C)(C)O1 (stereo unspecified) = 22.3 µM (inactive)
• Brc1ccc2c(-c3nc(-c4c[nH]c5ccccc45)cs3)c[nH]c2c1 = 12.1 µM (inactive)
• N#CC(C#N)=C1CCCS(=O)(=O)c2ccccc21 = > 100 µM (inactive)

* * *

test system: M14; assay: NCI tumour cell line growth inhibition, 48 h
Activity calls are given as the source filed them. Cut-off read from the data, not from the text of the source: active = GI50 up to about 1.1 µM and inactive = higher.
Recorded GI50 values for a group of molecules are listed next.
measured.endpoint: GI50

- O=C1CSC(c2cccc(Oc3ccccc3)c2)N1c1cccc(Cl)c1Cl (centres undefined): 40.4 µM (inactive)
- O=C(CC(Cc1ccccc1)c1ccc(Oc2ccccc2)cc1)Nc1cccc(Cl)c1 (centres undefined): 4.88 µM (inactive)
- CC(=O)OC(C#N)CC(C)(C)/[N+]([O-])=[N+](\[O-])C(C)(C)CC(C#N)OC(C)=O (centres undefined): 14.4 µM (inactive)
- COc1cc(-c2cc(OC)c(OC)c3ccc(Br)cc23)c2cc(Br)ccc2c1OC: 23.2 µM (inactive)
- COc1ccc(OC)c([N+](=O)[O-])c1-c1nc2sc(Cl)cn2c1/C=N/N=C(N)N: 34.4 µM (inactive)
- CC(C)(C)C1=CC(=C2C=Cc3cc(O)ccc3O2)C=C(C(C)(C)C)C1=O: 1.69 µM (inactive)
- CCC1OC(=O)CC(O)C(C)C(OC2OC(C)CC(N(C)C)C2O)C(CC=O)CC(C)C(=O)/C=C/C2(C)OC2C1C (centres undefined): 31 µM (inactive)
- O=[N+]([O-])c1ccc(Cl)cc1N/N=C/c1ccnc2ccccc12: > 100 µM (inactive)
- Cc1ccc([N+](=O)[O-])c2c(NCCNC(=O)c3cc(C(=O)NCCNc4ccnc5c(C)ccc([N+](=O)[O-])c45)n(C)n3)ccnc12: > 72.4 µM (inactive)

* * *

Endpoint: log10 of GI50. System: HCT-15. Items follow.
measured.endpoint: log10 of GI50 (log10 of the value in µM)

- C=C1c2nc3ccccc3n2C=C(c2ccccc2)N1c1ccc(C)cc1: 1.55
- C(=C\c1ccc(-c2cn3cc(/C=C/C=N/NC4=NCCN4)ccc3n2)cc1)/C=N/NC1=NCCN1: 0.57
- O=S(=O)(c1ccccc1)N1CCCC(c2ccccc2)CC1 (configuration not stated): 1.67
- O=[N+]([O-])c1cccc(/N=N/c2c(O)ccc3ccccc23)c1: 1.65
- N#Cc1c(Cl)c(C=O)c(=O)n2c1[nH]c1ccccc12: 1.76
- COC(=O)c1ccccc1/C=C1/Cc2ccccc2C1=O: 1.37
- COc1cc(/C=C\c2nnc(/C=C\c3ccc(O)c(OC)c3)s2)ccc1O: 0.17
- O=C1C(NCCO)=C(N2CC2)C(=O)C(NCCO)=C1N1CC1: 1.76
- O=C1CSC(c2cccc(Oc3ccccc3)c2)N1c1cccc(Cl)c1Cl (configuration not stated): 1.29
- NC(=O)CCC(NCc1c2ccccc2[n+]([O-])c2ccccc12)C(=O)O (configuration not stated): 1.54
- c1ccc2c(c1)N=c1ccccc1=P21c2ccccc2Nc2ccccc21: 1.24
- O=[N+]([O-])c1ccc(C[P+]2(c3ccccc3)CCCCC2)cc1.[O-][Cl+3]([O-])([O-])[O-]: 1.86
- Cc1ccc(S(=O)(=O)Nc2cccc3c(=O)nc[nH]c23)cc1: 1.79
- CCOC(=O)c1nc2cc(C(F)(F)F)ccc2nc1Oc1ccc(C(=O)OC)cc1: 1.71
- COC(=O)Cc1c([C@@]2(C)CCCC(C)(C)C2)ccc2c1C(=O)OC2: 0.81
- O=C(Nc1ccc(C(F)(F)F)cc1[N+](=O)[O-])C(=O)C(C(=O)c1ccc2ccccc2c1)C1OC(=O)c2ccccc21 (configuration not stated): 0.94
- O=C(c1cccs1)N(C(=S)N1CCN(c2ccccn2)CC1)C1CCCCC1: 1.89
- CCCCCCCCCCCCCCCc1nnc(SCC(=O)O)[nH]1: 1.50
- CC1=C(CO)C(=O)O[C@@H]([C@@H](CO)[C@H]2CCC3C4C[C@@H](O)[C@@]5(O)CC=CC(=O)[C@]5(C)C4CC[C@@]32C)C1 (some centres not stated): 1.51
- COc1ccc(CN(Cc2ccc(OC)cc2)C(=O)CC2(O)C=CCC2)cc1 (configuration not stated): 1.90
- COC(=O)c1cccc(N[C@@H]2c3cc4c(cc3C(c3cc(OC)c(O)c(OC)c3)[C@H]3C(=O)OCC32)OCO4)c1 (some centres not stated): 0.03
- CC[C@H](C)c1occ2c(O)c(C(=O)O)c(=O)cc-2c1C: 1.22
- CCOc1ccc(NCc2cc(OC)c(OC)c(OC)c2)cc1: -0.47
- CCCN(CCC)c1cc2c(cc1F)c(=O)c(C(=O)O)cn2-c1ccc(N2CCN(C)CC2)cn1: 1.36
- Oc1nc(S)nc2c1CN(CCCN1CCOCC1)CN2: 1.51
- CCC1c2[nH]c3ccccc3c2C[C@H]2C(=O)NC(Cc3c[nH]c4ccccc34)C(=O)N12 (some centres not stated): 1.45
